Test system: Dengue virus serotype 2 (DENV-2)
Test Method Notes: Antiviral testing against Dengue virus serotype 2 in Vero cells (CPE inhibition assay, immunostaining)
Type: cell-based
Condition Summary: DENV2, Vero, read-out: half maximal effective concentration (EC50), viral replication
Observed Property: pEC50
Please treat pEC50 as minus the base-10 logarithm of the molar concentration.

Form: item `Cn1cncc1-c1c(F)cncc1NC(=O)c1c(N)nn2cc(F)cnc12` ; test system Dengue virus serotype 2 (DENV-2); pEC50: 6.34

* * *

Test Method Notes: Cytotoxic effect on Vero cells, assessed in parallel
Format: cell-based
Condition Summary: African green monkey, FIG. 5, read-out: half maximal cytotoxic concentration (CC50), viability of Vero cells
Observed Property: CC50 (µM)
Give just the number in µM; leave the unit off.

So for Cn1cncc1-c1c(F)cncc1NC(=O)c1c(N)nn2cc(F)cnc12 [Compound 2] , the logged CC50 turned out to be 6.8
